protein stability index for assorted sequences
# assayOverview: protein stability index of a GFP-peptide fusion (yeast GPS) (PSI 1-4); higher = more stable; sorted into four equal gates, so the index is relative within each strain
# conditionSummary: pdr5∆
Reply with just the number.

INSERT INTO assay_data (sequencerecord, result) VALUES
  ('TKYERARILGTRALQIS [RPO26]', 1.36);

The measured protein stability index associated with VITALKEPPRDRKKDKN [RPL12A] reads 2.61

Per the records, this sequence ( IFLKRKDFTNKNLIQLI [SRB8] ) has protein stability index equal to 1.43

Per the records, this sequence ( LGKWYSKEDYETLKRDR [ARP7] ) has protein stability index equal to 2.75

Value of protein stability index reported for the sequence EEEKSVDASPNDVTRRT [CSL4] is 3.33

What the record says about TIEDIAVAITRASKLKI [RPO31] : protein stability index is 1.76

In plain terms, VVVVGTVTDDARIFEFP [RPL18A] has a documented protein stability index of 2.9

====

# assayOverview: protein stability index of a GFP-peptide fusion (yeast GPS) (PSI 1-4); higher = more stable; sorted into four equal gates, so the index is relative within each strain
# conditionSummary: pdr5∆
quantity: protein stability index

INSERT INTO measurements (sequencerecord, result) VALUES
  ('QALIHGLNRHYYSLNID [RPN11]', 2.4);

protein stability index reading for NPTKSKEILDNILPFLW [ECM29] : 2.97

protein stability index measured on NDIHLRFMRFLADRDEF [ECM29] = 2.24

// protein stability index value for KLVRDAFALAKEKAPTI [RPT5] : 2.49

So for QEGKISSVYRLKFAVQV [RPL26A] , the logged protein stability index turned out to be 3.25

The sequence GRNIGHPIIQDKEGNGV [RPB3] showed protein stability index equal to 3.24

According to the records, this sequence GRICRPLIIVSDGQSRV [RET1] displays protein stability index of 2.11

====

# assayOverview: protein stability index of a GFP-peptide fusion (yeast GPS) (PSI 1-4); higher = more stable; sorted into four equal gates, so the index is relative within each strain
# conditionSummary: ubr1∆
The following sequences are shown together with reported protein stability index values.
Give your answer as a number; write no unit.

Use these answered entries as a reference point.
INSERT INTO results (sequencerecord, result) VALUES
  ('NSQLVGKPHFSLLGGFD [PCI8]', 2.54),
  ('RAGQRTRFKAVVVVGDS [RPS2]', 2.29),
  ('KKRSKVRKETYSSYIYK [HTB2]', 3.38),
  ('DVYSPEKGSWEQLSPQD [BRR2]', 3.34),
  ('NDDELNKLLGNVTIAQG [HTA1]', 3.34),
  ('VEISLVNGAKNLVVSGP [FAS1]', 2.51),
  ('EILRIHSRKMNLTRGIN [RPT6]', 2.52);

Now look at this entry.
Record PNLLFSMCGFEVRILPR [PRP8] , field protein stability index: 2.27

====

# reported protein stability index; entries follow
# assayOverview: protein stability index of a GFP-peptide fusion (yeast GPS) (PSI 1-4); higher = more stable; sorted into four equal gates, so the index is relative within each strain
# conditionSummary: san1∆
Note: the reply should be a number with no unit written.

The cases that follow already have their protein stability index on record.
INSERT INTO results (sequencerecord, result) VALUES
  ('MGKSAVIFVERATPATL [SRB2]', 1.66),
  ('TATAATNGNNAGGGSNK [MED6]', 3.27),
  ('DKIHARARGPMQVLTRQ [RPB2]', 2.97),
  ('EGKVTKLRRECSNPTCG [RPS31]', 3.18),
  ('ELEMIGGTNEDDFTDAI [YCS4]', 3.39);

// sample PPSVTLQDWQREDEFGS [YDL088C/ASM4] , its protein stability index was 2.99

The sequence VKKASGEIVSINQINEA [RPL20A] showed protein stability index equal to 2.81
